These measurements were taken from patent US12091405B2.

Below: a set of entries, each annotated with reported IC50.
Biological target: IDO1 (Homo sapiens)
Assay: IDO1 Human Whole Blood Assay
Type: cell-based
Parameters: Human whole blood was drawn in sodium heparin coated tubes from healthy internal donors; from tissue; host or cells: human whole blood from healthy donors, stimulated with LPS and IFNγ
Conditions: LPS and IFNγ 100 ng/mL, overnight (18 h), kynurenine by LC/MS/MS

The cases that follow already have their IC50 on record.
Qu. State, in one line, measured IC50 of Cc1cccc(C2CCN(C(=O)Cn3nc(C(=O)N4CC[C@H](O)[C@@H](F)C4)c4c3CCCC4)CC2)c1C
Ans. 83.7 nM

Qu. For Cc1cccc(C2CCN(C(=O)Cn3nc(C(=O)N4CCC(O)(CF)CC4)c4c3CCCC4)CC2)c1C , write its IC50.
Ans. 50.8 nM

Qu. Consider the compound Cc1ccccc1C1CCN(C(=O)Cn2nc(C(=O)N3C[C@@H](C)O[C@@H](C)C3)c3c2CCC3)CC1 . State its measured IC50.
Ans. 475 nM

Qu. Please indicate IC50 recorded for Cc1cccc(C2CCN(C(=O)Cn3nc(C(=O)N4CC[C@@H](O)[C@@H](F)C4)c4c3C[C@H]3C[C@@H]43)CC2)c1C
Ans. 192 nM

Qu. Could you please provide reported IC50 for Cc1c(F)cccc1C1CCN(C(=O)Cn2nc(C(=O)N3C[C@@H](C)O[C@@H](C)C3)c3c2CCC3)CC1 ? Thanks!
Ans. 269 nM

Continuing:
Qu. Please indicate IC50 recorded for Cc1cccc(C2CCN(C(=O)Cn3nc(C(=O)N4CC[C@H](O)[C@H](F)C4)c4c3CCC4)CC2)c1C (single isomer, unassigned) [Example 61]
Ans. 545 nM

Qu. Give IC50 for the following compound: Cc1cccc(C2CCN(C(=O)Cn3nc(C(=O)N4CCN(C(=O)CO)CC4)c4c3CCCC4)CC2)c1C
Ans. 304 nM

Qu. Note IC50 for the compound shown: Cc1c(F)ccc(C2CCN(C(=O)Cn3nc(C(=O)N4C[C@@H](C)O[C@@H](C)C4)c4c3CCC4)CC2)c1C
Ans. 434 nM

----------
Target: IDO1 (Homo sapiens)
Experiment: IDO1 Cellular Assay in HeLa Cells Stimulated with IFNγ
Assay type: cell-based
Conditions: IFNγ 100 ng/mL, 300 uM L-tryptophan, about 48 hours, fluorescence readout, read-out: IDO1 HELA Cell Assay, IC50
Rule for this label: Met means IC50 is less than 30 nM; Not met means IC50 is at least 30 nM.

Consider the following illustrative entries.
Qu. Given Cc1ccc(C2CCN(C(=O)Cn3nc(C(=O)N4C[C@@H](C)O[C@@H](C)C4)c4c3CCC4)CC2)cc1C(F)(F)F , is recorded IC50 strictly lower than 30 nM?
Ans. Not met

Qu. In the record for Cc1cc(C2CCN(C(=O)Cn3nc(C(=O)N4C[C@@H](C)O[C@@H](C)C4)c4c3CCC4)CC2)ccc1Cl , is IC50 less than 30 nM?
Ans. Met

Qu. Hi there! Is IC50 for C[C@@H]1CN(C(=O)c2nn(CC(=O)N3CCC(c4cccc(Cl)c4)CC3)c3c2CCC3)C[C@H](C)O1 below 30 nM, do you know?
Ans. Not met

Qu. Please state whether IC50 is below 30 nM for C[C@@H]1CN(C(=O)c2nn(CC(=O)N3CCC(c4ccc(C(F)F)c(F)c4)CC3)c3c2CCC3)C[C@H](C)O1
Ans. Not met

Let us examine a further case.
Qu. Lab log: compare recorded IC50 with 30 nM; is it strictly lower for C[C@@H]1CN(C(=O)c2nn(CC(=O)N3CCC(c4ccccc4)CC3)c3c2CCC3)C[C@H](C)O1 ?
Ans. Not met

----------
compounds and their reported pIC50
Target: IDO1 (Homo sapiens, UniProt P14902)
Sequence (P14902 whole entry): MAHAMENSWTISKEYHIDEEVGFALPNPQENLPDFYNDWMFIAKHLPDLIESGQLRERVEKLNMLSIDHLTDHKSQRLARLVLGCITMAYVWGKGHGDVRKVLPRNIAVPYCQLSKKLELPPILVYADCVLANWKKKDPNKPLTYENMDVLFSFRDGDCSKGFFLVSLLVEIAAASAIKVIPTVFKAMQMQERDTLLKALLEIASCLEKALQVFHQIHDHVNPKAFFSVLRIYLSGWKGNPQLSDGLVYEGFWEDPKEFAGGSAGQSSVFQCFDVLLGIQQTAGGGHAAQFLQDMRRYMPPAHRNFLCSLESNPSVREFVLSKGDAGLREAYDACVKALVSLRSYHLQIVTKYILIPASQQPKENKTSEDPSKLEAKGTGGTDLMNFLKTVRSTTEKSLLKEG
Experiment: IDO1 Cellular Assay in HeLa Cells Stimulated with IFNγ
Assay type: cell-based
Conditions: IFNγ 100 ng/mL, 300 uM L-tryptophan, about 48 hours, fluorescence readout, read-out: IDO1 HELA Cell Assay, IC50
# pIC50 = -log10(concentration in molar units)

Known results for compounds:
Qu. Report pIC50 for Cc1c(C2CCN(C(=O)Cn3nc(C(=O)N4CCC(O)CC4)c4c3C[C@H]3C[C@@H]43)CC2)cccc1C(F)(F)F
Ans. 8.80

Qu. Return the recorded pIC50 value; entry: Cc1cccc(C2(F)CCN(C(=O)Cn3nc(C(=O)N4CCC(OCCO)CC4)c4c3C[C@H]3C[C@@H]43)CC2)c1C
Ans. 9.00

Next compound, pIC50 to be filled in.
Qu. Supply pIC50 value. Item: C[C@@H]1CN(C(=O)c2nn(CC(=O)N3CCC(c4cccc(F)c4)CC3)c3c2CCC3)C[C@H](C)O1
Ans. 7.18

----------
Target: IDO1 (Homo sapiens, UniProt P14902)
Assay: IDO1 Cellular Assay in HeLa Cells Stimulated with IFNγ
Type: cell-based
Conditions: IFNγ 100 ng/mL, 300 uM L-tryptophan, about 48 hours, fluorescence readout, read-out: IDO1 HELA Cell Assay, IC50
Description: Biological Assays IDO1 Cellular Assay in HeLa Cells Stimulated with IFNγ HeLa cells were cultured in complete HeLa culture medium (90% EMEM, 10% heat-inactivated fetal bovine serum) and expanded to about 1×10^9 cells. […] Frozen HeLa cells were thawed and transferred into HeLa assay medium (99% complete HeLa culture medium, 1% Pen/Strep) with 20 mL medium/vial of cells. […] The cells were then counted and adjusted to a density of 2×10^5 cells/mL in HeLa assay medium. […]
IC50 values, listed per item
Numeric answer only, unit nM assumed.

Qu. Output reported IC50 of the compound C[C@@H]1CN(C(=O)c2nn(CC(=O)N3CCC(C4CCCCC4)CC3)c3c2CCC3)C[C@H](C)O1 [Example 30] on IDO1 (Homo sapiens, UniProt P14902).
Ans. 299

Qu. State IC50 on IDO1 (Homo sapiens, UniProt P14902). Entry: Cc1cc(Cl)cc(C2CCN(C(=O)Cn3nc(C(=O)N4C[C@@H](C)O[C@@H](C)C4)c4c3CCC4)CC2)c1 [Example 148]
Ans. 117

Qu. Please tell me the measured IC50 for COc1c(F)cccc1C1CCN(C(=O)Cn2nc(C(=O)N3C[C@@H](C)O[C@@H](C)C3)c3c2CCC3)CC1 [Example 115] ; system: IDO1 (Homo sapiens, UniProt P14902).
Ans. 48.5

Qu. Fill: IC50 (IDO1 (Homo sapiens, UniProt P14902)) for this compound C[C@@H]1CN(C(=O)c2nn(CC(=O)N3CCC(c4cccc(F)c4Cl)CC3)c3c2CCC3)C[C@H](C)O1 [Example 97]
Ans. 24.1

Qu. Recall the reported IC50 of Cc1cccc(C2CCN(C(=O)Cn3nc(C(=O)N4CCN(C(=O)CO)CC4)c4c3C[C@H]3C[C@@H]43)CC2)c1C [Example 18] when tested on IDO1 (Homo sapiens, UniProt P14902).
Ans. 2.3

Others:
Qu. Give the observed IC50 of C[C@@H]1CN(C(=O)c2nn(CC(=O)N3CCC(c4cccc(C5CC5)c4)CC3)c3c2CCC3)C[C@H](C)O1 [Example 103] for IDO1 (Homo sapiens, UniProt P14902).
Ans. 29.6

Qu. Param request: IC50 | system IDO1 (Homo sapiens, UniProt P14902) | item Cc1c(C2CCN(C(=O)Cn3nc(C(=O)N4C[C@@H](C)O[C@@H](C)C4)c4c3CCC4)CC2)ccc(F)c1F [Example 174]
Ans. 10.3

Qu. Write down the reported IC50 (system: IDO1 (Homo sapiens, UniProt P14902)) of C[C@@H]1CN(C(=O)c2nn(CC(=O)N3CCC(c4ccc(C(F)(F)F)cc4F)CC3)c3c2CCC3)C[C@H](C)O1 [Example 147]
Ans. 109

Qu. Enter IC50 (test system IDO1 (Homo sapiens, UniProt P14902)) for C[C@@H]1CN(C(=O)c2nn(CC(=O)N3CCC(c4cccc(CC(F)(F)F)c4)CC3)c3c2CCC3)C[C@H](C)O1 [Example 164]
Ans. 206

Qu. Check IDO1 (Homo sapiens, UniProt P14902) data and give IC50 for Cc1cc(F)ccc1C1CCN(C(=O)Cn2nc(C(=O)N3CCN(C(=O)CO)CC3)c3c2CCC3)CC1 [Example 57] .
Ans. 289

Qu. Lab note: IDO1 (Homo sapiens, UniProt P14902) assay, enter IC50 for C[C@@H]1CN(C(=O)c2nn(CC(=O)N3CCC(c4cc(F)cc(C(F)(F)F)c4)CC3)c3c2CCC3)C[C@H](C)O1 [Example 141] here
Ans. 97.4

Qu. Supply IC50 measured with IDO1 (Homo sapiens, UniProt P14902) for C[C@@H]1CN(C(=O)c2nn(CC(=O)N3CCC(c4cccc(C5(C)CC5)c4)CC3)c3c2CCC3)C[C@H](C)O1 [Example 125] .
Ans. 57.7

Qu. Report value: IC50, system: IDO1 (Homo sapiens, UniProt P14902), compound: COc1c(F)cc(F)cc1C1CCN(C(=O)Cn2nc(C(=O)N3C[C@@H](C)O[C@@H](C)C3)c3c2CCC3)CC1 [Example 110]
Ans. 39.3
